Reference source for all entries: patent US20230364012A1

procedure-text: Particle size of the compositions, tested initially, after 15 days and one month (stability studies)
Type: physicochemical
experimental-context: Initial
measurement-label: Particle size D10 (µm)
Write the answer as a number in µm, unit excluded.

q: Fill blank: measured Particle size D10 of the molecule CCOC(=O)O[C@]1(C(=O)OCCl)CC[C@H]2[C@@H]3CCC4=CC(=O)C=C[C@]4(C)[C@H]3[C@@H](O)C[C@@]21C [API, Loteprednol etabonate] is ____.
a: 1
